# assay-target: Heat shock factor protein 1 (Mus musculus, UniProt P38532)
# Sequence (P38532 whole entry): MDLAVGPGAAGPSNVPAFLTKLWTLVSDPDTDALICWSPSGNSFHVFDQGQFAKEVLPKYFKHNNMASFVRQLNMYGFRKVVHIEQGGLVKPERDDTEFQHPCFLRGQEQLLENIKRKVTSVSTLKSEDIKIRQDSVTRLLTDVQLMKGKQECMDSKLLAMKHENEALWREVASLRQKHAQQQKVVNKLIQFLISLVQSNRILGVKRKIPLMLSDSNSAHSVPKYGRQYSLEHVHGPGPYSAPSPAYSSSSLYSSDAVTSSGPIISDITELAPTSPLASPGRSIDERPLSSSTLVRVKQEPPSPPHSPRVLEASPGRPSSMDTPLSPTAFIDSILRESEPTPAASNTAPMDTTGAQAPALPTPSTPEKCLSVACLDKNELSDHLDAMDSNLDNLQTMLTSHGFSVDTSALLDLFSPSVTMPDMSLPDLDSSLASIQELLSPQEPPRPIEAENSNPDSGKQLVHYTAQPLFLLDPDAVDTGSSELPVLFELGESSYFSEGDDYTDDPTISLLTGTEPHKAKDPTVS
# protocol-text: enhancement of HSF1-driven luciferase signal – cell-based, NIH3T3, luminescence, dose retest, confirmation (AID 435004);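 note: stress induced by proteasome inhibitor MG132 added 30 min after compound; luciferase reporter driven by HSF1 response element in NIH3T3 cells; actives raise luminescence as potentiators of the MG132 stress response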
# Type: functional
Calls of active or inactive are those of the source.
test-readout: EC50

* O=C(COC(=O)C1CCN(S(=O)(=O)c2cccc3cccnc23)CC1)c1ccc([N+](=O)[O-])cc1 | > 260 µM (inactive)
* CSCCC(NS(=O)(=O)c1cccc(C(F)(F)F)c1)C(=O)N(C)CCOc1ccc(Cl)cc1 (stereo not drawn) | > 260 µM (inactive)
* CCOC(=O)/C(=N/Nc1ccc(Cl)cc1)Sc1nnnn1-c1ccc(C)cc1 | > 260 µM (inactive)
* Cc1ccc(NC2=NC(N)=NC3(CCCC3)N2)c(C)c1 | > 260 µM (inactive)
* OC(CN1c2ccccc2Sc2ccccc21)Cn1nnc2ccccc21 (stereo not drawn) | > 260 µM (inactive)
* Cc1cc(C)cc(OCC(=O)O/N=C(\N)Cc2ccc([N+](=O)[O-])cc2)c1 | > 260 µM (inactive)
* C=C(C)Cn1c(SCC(=O)O)nnc1-c1ccc(OC)cc1 | > 260 µM (inactive)
* C/C=C1\COC(C(=O)NCc2ccccc2)(C(F)(F)F)C=C1C=C(C)C (stereo not drawn) | > 260 µM (inactive)

====

# assay-target: Endoribonuclease toxin MazF (Escherichia coli K-12)
# Sequence (P0AE70 whole entry): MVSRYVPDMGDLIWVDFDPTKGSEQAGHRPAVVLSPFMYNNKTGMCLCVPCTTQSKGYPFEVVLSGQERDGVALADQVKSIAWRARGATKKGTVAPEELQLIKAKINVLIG
# protocol-text: substrate-only fluorescence increase artefacts – biochemical, single-stranded RNase substrate, counter-screen for MazEF activator project, dose response (AID 588502)
# Assay type: functional
The source made the active and inactive calls.
Quick reference for EC50 among some compounds
test-readout: EC50

* Oc1[nH]c2ccccc2c1N=Nc1ccccc1 | 54.6 µM (inactive)
* COC(=O)CSc1cc([N+](=O)[O-])cc2c1c(C1OCCO1)nn2-c1ccccc1 | > 99 µM (inactive)
* Nc1c(C(=O)Nc2nccs2)sc2nc(-c3cccs3)cc(C(F)(F)F)c12 | > 99 µM (inactive)
* COc1ccc(Br)c(C(=O)OCc2cc(=O)oc3cc(C)ccc23)c1 | > 99 µM (inactive)
* CCOC(=O)CSC1=NC(=O)/C(=C\c2ccc(OC(C)=O)cc2)S1 | > 99 µM (inactive)

====

# assay-target: Induced myeloid leukemia cell differentiation protein Mcl-1 (Homo sapiens)
# Sequence (Q07820 whole entry): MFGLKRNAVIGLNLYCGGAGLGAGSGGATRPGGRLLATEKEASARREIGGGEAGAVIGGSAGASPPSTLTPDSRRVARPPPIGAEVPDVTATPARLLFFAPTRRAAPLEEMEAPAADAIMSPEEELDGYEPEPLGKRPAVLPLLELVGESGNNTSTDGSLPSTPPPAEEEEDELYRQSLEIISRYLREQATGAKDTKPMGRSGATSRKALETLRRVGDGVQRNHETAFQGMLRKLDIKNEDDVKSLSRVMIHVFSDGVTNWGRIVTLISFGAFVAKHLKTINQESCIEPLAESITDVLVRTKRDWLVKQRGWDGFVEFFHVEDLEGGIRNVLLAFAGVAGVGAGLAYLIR
# Format: functional
Active and inactive are the calls of the source.
test-readout: IC50

- Cc1ccc(NS(=O)(=O)c2cc([N+](=O)[O-])ccc2NNC(=S)Nc2cccc(Cl)c2)c(C)c1: 5.74 µM (not active)
- C/N=c1\scc(C)n1/N=C/c1ccc(O)c(O)c1O: 2.72 µM (active)
- C=C(C)C(=O)Nc1cccc(C2=NOC3(C2)C[C@@H](C(N)=O)N(C(=O)/C=C/C=C/C)C3)c1 (stereo partly drawn): 2.3 µM (active)
- CC1CCN(C(c2ccc(N(C)C)cc2)c2nnnn2C(C)(C)C)CC1 (stereo not drawn): > 54 µM (active)
- CCOc1ccccc1NC(=O)/C=C/C(N)=O: 1.1 µM (not active)
- Cc1cccc(OCCCC(=O)Nc2ccc(N(C)C)cc2)c1: < 0.4 µM (active)
- O=C(N/N=C/c1ccc(-c2ccccc2C(=O)O)o1)c1cccs1: 5.27 µM (active)
- Cc1ccc(N2C(=O)NC(=O)/C(=C/c3ccoc3)C2=O)cc1: 4.84 µM (active)

====

# assay-target: 26S proteasome non-ATPase regulatory subunit 14 (Homo sapiens, UniProt O00487)
# Sequence (O00487 whole entry): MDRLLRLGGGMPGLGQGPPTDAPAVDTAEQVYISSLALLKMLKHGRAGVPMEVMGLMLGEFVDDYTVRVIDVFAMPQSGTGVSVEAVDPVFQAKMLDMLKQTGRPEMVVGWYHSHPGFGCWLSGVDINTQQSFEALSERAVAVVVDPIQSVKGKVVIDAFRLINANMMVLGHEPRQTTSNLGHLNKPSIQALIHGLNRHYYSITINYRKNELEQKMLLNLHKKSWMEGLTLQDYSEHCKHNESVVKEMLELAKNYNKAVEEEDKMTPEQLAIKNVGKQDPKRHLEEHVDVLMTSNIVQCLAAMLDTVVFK
# protocol-text: inhibition of proteasome subunit RPN11 – biochemical, fluorescence polarization, uHTS hits, confirmation (AID 602368)
# Type: functional
Activity calls are given as the source filed them.
test-readout: IC50

* N#Cc1c(SCC(=O)Nc2nc3ccc(Br)cc3s2)sc2c(O)cc(=O)[nH]c12 | 12.8 µM (active)
* Cc1ccc(N2C(=O)NC(=O)/C(=C/c3ccoc3)C2=O)cc1 | 6.76 µM (active)
* N#C/C(=C\c1ccc(O)c(O)c1)C(=O)N1CCc2ccccc21 | 0.798 µM (active)
* NC(=O)CC(NC(=O)Cc1ccc(Cl)cc1)c1ccc(NC2CCCC2)c([N+](=O)[O-])c1 (stereo not given) | 29.9 µM (active)
* CCCCCCCCCCCCCCCC(O)C[N+](C)(C)CCO (stereo not given) | 22.1 µM (active)

====

# assay-target: Corticotropin-releasing factor receptor 2/Corticotropin-releasing factor-binding protein (Homo sapiens, UniProt P24387+Q13324)
# Sequence (Q13324 whole entry): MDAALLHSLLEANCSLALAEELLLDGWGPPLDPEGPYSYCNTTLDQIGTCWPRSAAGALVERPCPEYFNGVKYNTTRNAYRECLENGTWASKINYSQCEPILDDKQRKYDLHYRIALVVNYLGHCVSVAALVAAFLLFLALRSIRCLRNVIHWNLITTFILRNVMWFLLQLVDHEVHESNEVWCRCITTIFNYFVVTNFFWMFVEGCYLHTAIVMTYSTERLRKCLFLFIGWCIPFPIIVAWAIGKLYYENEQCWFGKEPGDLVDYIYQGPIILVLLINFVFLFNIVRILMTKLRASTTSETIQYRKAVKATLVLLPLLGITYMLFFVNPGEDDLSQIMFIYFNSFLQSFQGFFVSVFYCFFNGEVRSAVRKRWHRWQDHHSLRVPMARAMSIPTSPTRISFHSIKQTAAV
# Sequence (P24387 whole entry): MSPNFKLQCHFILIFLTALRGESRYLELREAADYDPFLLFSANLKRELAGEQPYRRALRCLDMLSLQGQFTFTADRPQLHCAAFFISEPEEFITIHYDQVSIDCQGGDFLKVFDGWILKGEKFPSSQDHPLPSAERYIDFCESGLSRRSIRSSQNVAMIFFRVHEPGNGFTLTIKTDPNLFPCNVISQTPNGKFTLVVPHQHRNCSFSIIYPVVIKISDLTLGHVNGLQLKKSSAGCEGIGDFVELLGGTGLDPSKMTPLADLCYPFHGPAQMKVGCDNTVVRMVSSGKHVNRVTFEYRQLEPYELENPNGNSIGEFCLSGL
# protocol-text: activators of CRF receptor 2 with binding protein – uHTS hits, confirmation (AID 602473)
# Format: functional
# test-conditions: read-out: EC50_Mean
The source made the active and inactive calls.
Quick reference for EC50 among some compounds
test-readout: EC50

- Nc1cc(OC(=O)c2ccco2)nn1S(=O)(=O)c1ccc(F)cc1: > 53 µM (inactive)
- CCc1ccccc1N1CN(Cc2ccco2)CNC1=S: > 53 µM (inactive)
- COc1ccc2[nH]cc(CCN=C(S)NC3CCCC3)c2c1: > 53 µM (inactive)
- CSc1ccc(/C=C/C(=O)N2CCN(c3ccccn3)CC2)cc1: > 53 µM (inactive)
- CCC1CCCCN1C(=O)COC(=O)COc1ccc(Br)cc1 (stereo unspecified): > 53 µM (inactive)
- Cc1ccccc1Nc1scc(-c2ccc(Br)cc2)[n+]1-c1ccccc1C: > 53 µM (inactive)

====

# assay-target: Alkaline phosphatase, tissue-nonspecific isozyme (Homo sapiens, UniProt P05186)
# Sequence (P05186 whole entry): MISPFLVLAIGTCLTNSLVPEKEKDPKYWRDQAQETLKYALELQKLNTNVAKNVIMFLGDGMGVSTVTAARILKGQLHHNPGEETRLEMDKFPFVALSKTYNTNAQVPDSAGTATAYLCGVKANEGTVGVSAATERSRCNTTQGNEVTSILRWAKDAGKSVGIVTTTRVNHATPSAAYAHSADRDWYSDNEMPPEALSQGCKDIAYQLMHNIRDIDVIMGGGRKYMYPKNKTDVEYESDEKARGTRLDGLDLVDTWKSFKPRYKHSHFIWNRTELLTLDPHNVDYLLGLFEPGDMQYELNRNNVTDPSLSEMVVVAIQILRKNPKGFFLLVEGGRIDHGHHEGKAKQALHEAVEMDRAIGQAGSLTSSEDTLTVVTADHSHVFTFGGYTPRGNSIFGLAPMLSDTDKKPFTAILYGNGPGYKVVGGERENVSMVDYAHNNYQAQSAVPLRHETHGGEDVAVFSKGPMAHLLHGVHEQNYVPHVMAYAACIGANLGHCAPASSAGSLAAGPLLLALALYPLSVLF
# protocol-text: potency against alkaline phosphatase TNAP – biochemical, luminescent, dose response, SAR follow-up (AID 1056)
Activity calls are given as the source filed them.
Outcome codes: TRUE (active), FALSE (inactive)

• CNc1nnc(-c2cc3ccccc3oc2=O)s1 = FALSE
• CCc1nccn1CC(=O)c1ccc(O)c(O)c1 = TRUE
• Nc1nnc(-c2cc3ccccc3oc2=O)s1 = FALSE
• Cc1cc(C)c2c(O)nc(SCC(=O)c3ccc(O)c(O)c3)nc2n1 = FALSE

====

# assay-target: Carboxy-terminal domain RNA polymerase II polypeptide A small phosphatase 1 (Homo sapiens, UniProt Q9GZU7)
# Sequence (Q9GZU7 whole entry): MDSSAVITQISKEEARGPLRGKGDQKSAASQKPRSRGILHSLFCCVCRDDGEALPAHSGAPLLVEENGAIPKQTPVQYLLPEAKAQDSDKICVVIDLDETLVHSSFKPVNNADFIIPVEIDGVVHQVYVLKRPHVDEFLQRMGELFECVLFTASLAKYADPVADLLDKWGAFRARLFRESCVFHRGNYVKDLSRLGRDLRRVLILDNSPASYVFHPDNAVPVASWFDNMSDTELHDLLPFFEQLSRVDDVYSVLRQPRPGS
# protocol-text: CTDSP1 inhibitors, concentration-response, biochemical, absorbance readout, ultra-high-throughput screen actives (AID 540297)
# Assay type: functional
Activity calls are given as the source filed them.
test-readout: IC50

• N#C/C(=C\c1ccc(OCc2ccc(F)cc2)cc1)C(=O)Nc1cccc(C(=O)O)c1 = 4.13 µM (active)
• COc1ccc(CC(=O)NNC(=O)COc2ccc3ccccc3c2)cc1 = 9.26 µM (active)
• O=C(N/N=C/c1ccc(-c2ccccc2C(=O)O)o1)c1cccs1 = 4.6 µM (active)
• CCOC(=O)/C=C1\CN(CCC(C)C)S(=O)(=O)c2ccccc21 = 45.3 µM (active)
• CC1CCN(c2ccc(S(=O)(=O)Nc3cc(C(=O)O)cc(C(=O)O)c3)cc2[N+](=O)[O-])CC1 = 9.99 µM (active)

====

Quick reference for AC50 among some molecules
# assay-target: Paired box protein Pax-8 (Homo sapiens, UniProt Q06710)
# Sequence (Q06710 whole entry): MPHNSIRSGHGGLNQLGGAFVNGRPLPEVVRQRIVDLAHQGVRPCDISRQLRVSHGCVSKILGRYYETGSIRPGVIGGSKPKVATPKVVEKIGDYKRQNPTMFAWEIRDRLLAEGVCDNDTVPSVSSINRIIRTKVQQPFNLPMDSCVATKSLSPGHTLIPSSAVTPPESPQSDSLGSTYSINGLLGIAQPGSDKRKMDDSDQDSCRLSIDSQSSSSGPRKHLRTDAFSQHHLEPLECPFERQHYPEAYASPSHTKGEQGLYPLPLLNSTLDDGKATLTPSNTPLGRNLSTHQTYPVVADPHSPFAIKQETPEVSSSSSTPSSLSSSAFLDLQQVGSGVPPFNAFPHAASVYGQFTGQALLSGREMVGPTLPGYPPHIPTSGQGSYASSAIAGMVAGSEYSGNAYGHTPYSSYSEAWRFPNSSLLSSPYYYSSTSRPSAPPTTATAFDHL
# protocol-text: PAX8 transcriptional activity inhibition in RMG-I – RMG-I cells, luciferase, cherry-pick, dose response (AID 687027);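 note: luciferase reporter driven by Pax8 target thyroperoxidase promoter measured by SteadyGlo luminescence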
# Format: functional, cell-based
Calls of active or inactive are those of the source.
test-readout: AC50

- Cc1ccc(C)c(CSC2=NCCN2C(=O)Cc2ccc([N+](=O)[O-])cc2)c1: 26.3 µM (active)
- Cc1ccc(S(=O)(=O)Nc2ccc3c(c2)C(=O)N([C@@H](C)CO)C[C@@H](C)[C@@H](CN(C)S(=O)(=O)c2ccc(Cl)cc2)OCCCC[C@@H](C)O3)cc1: 10.4 µM (active)
- C[C@H](CO)N1C[C@H](C)[C@H](CN(C)Cc2ccc3c(c2)OCO3)OCCCC[C@H](C)Oc2ccc(NC(=O)Nc3ccc(C(F)(F)F)cc3)cc2C1=O: 9.15 µM (active)
- Cc1ccccc1-c1ccc([C@@H]2[C@@H]3CN(C(=O)Nc4cccc(F)c4)C[C@H]2N3)cc1: 30.7 µM (active)
- COc1ccc2c3c(n(C)c2c1)[C@H](CO)N(C(=O)Nc1ccc(F)cc1)CC31CCN(C(=O)c2ccc3c(c2)OCO3)CC1: 6.51 µM (active)
- C[C@@H]1CN([C@@H](C)CO)S(=O)(=O)c2ccc(C#Cc3ccccc3F)cc2O[C@H]1CN(C)C(=O)c1ccc2c(c1)OCO2: 4.88 µM (active)
- Cn1c(=O)c([N+](=O)[O-])c(Cl)c2ccccc21: 6.65 µM (active)
